assayMethodText: in vivo
measurementParameters: female, SW, mouse, iv
Experimental: Tissue samples were prepared by homogenizing a weighed tissue sample in phosphor-buffered saline (PBS, ×1)+1% DTT (×1)+CH3CN (0.1% HCOOH) (×3)), centrifuged at 10,000 rpm×5 min; 150 μL supernatant+90 μL H2O. 100 μL prepared samples were subjected to HPLC, using 5-95% CH3CN (0.1% HCOOH) as the eluent. The running time was 15 min.
measuredProperty: Kp at 30 min

Ask | Provide only the value of recorded Kp at 30 min for CN(NC(=O)CC(=O)NN(C)C(=S)C1CC1)C(=S)C1CC1 [Compound (18)]
Reply | ~1.64
